Listing: MIC of selected compounds
test system: Staphylococcus aureus; assay: Antibacterial activity against Staphylococcus aureus ATCC 25923 assessed as reduction in bacterial growth incubated for 18 hrs by Mueller-Hinton Broth based microdilution assay; assay type: functional
Square brackets hold non-standard residues; d marks the D form. Peptide text beside a SMILES is read from it. NMeL = CN[C@@H](CC(C)C)C(=O)O
MEASUREMENT TYPE: MIC

COMPOUND | RESULT VALUE
CC[C@H](C)[C@H](NC(=O)[C@H](CCCNC(=N)N)NC(=O)[C@H](CCCCN)NC(=O)[C@H](CC(C)C)N(C)C(=O)[C@H](CC(C)C)N(C)C(=O)CN)C(=O)N[C@@H](CCCCN)C(=O)N[C@H](C(=O)N(C)[C@@H](CC(C)C)C(=O)N(C)[C@@H](CC(C)C)C(N)=O)[C@@H](C)O (H-G[NMeL][NMeL]KRIKT[NMeL][NMeL]-NH2) | > 128 µM
CC[C@H](C)[C@H](NC(=O)[C@H](CCCNC(=N)N)NC(=O)[C@H](CCCCN)NC(=O)[C@H](CC(C)C)N(C)C(=O)[C@H](CC(C)C)NC(=O)CN)C(=O)N[C@@H](CCCCN)C(=O)N[C@H](C(=O)N[C@@H](CC(C)C)C(=O)N[C@@H](CC(C)C)C(N)=O)[C@@H](C)O (H-GL[NMeL]KRIKTLL-NH2) | > 128 µM
CC[C@H](C)[C@H](NC(=O)[C@H](CCCNC(=N)N)NC(=O)[C@H](CCCCN)NC(=O)[C@H](CC(C)C)NC(=O)[C@H](CC(C)C)N(C)C(=O)CN)C(=O)N[C@@H](CCCCN)C(=O)N[C@H](C(=O)N[C@@H](CC(C)C)C(=O)N(C)[C@@H](CC(C)C)C(N)=O)[C@@H](C)O (H-G[NMeL]LKRIKTL[NMeL]-NH2) | > 128 µM
